biological target: Cell division protein FtsZ (Pseudomonas aeruginosa (strain ATCC 15692 / PAO1 / 1C / PRS 101 / LMG12228), UniProt P47204); assay: Inhibition of Pseudomonas aeruginosa FtsZ GTPase activity by spectrophotometric assay
Sequence (P47204 whole entry): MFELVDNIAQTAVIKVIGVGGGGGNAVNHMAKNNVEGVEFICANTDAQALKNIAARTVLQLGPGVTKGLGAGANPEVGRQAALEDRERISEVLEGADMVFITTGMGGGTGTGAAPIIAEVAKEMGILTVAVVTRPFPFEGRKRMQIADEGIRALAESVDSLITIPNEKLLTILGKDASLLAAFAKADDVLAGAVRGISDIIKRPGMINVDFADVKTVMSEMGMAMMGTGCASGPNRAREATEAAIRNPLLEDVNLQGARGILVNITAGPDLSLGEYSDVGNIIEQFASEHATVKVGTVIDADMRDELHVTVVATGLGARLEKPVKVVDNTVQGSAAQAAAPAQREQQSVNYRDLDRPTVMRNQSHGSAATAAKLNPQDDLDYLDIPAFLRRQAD
Experimental Readout: IC50 (µM)

Some solved entries appear below for comparison.
| Given Smiles | IC50, µM |
| --- | --- |
| Nc1nc(Cl)c2ncn(C[C@H](NS(=O)(=O)c3ccccc3)C(=O)O)c2n1 | 1200 |
| C=CCNC(=O)[C@H](Cn1cnc2c(Cl)nc(N)nc21)NC(=O)N[C@H](C)c1ccccc1 | 1800 |
| C=CCNC(=O)[C@H](Cn1cnc2c(Cl)nc(N)nc21)NS(=O)(=O)c1ccc(C)cc1 | 1700 |

P. CCCNC(=O)[C@H](Cn1cnc2c(Cl)nc(N)nc21)NS(=O)(=O)c1ccc(C)cc1
Q. C=CCNC(=O)[C@H](Cn1cnc2c(Cl)nc(N)nc21)NS(C)(=O)=O
Of the two listed items, P and Q , which carries the larger IC50 figure? # answer = label of selected item P

Where do the numbers come from? From ChEMBL document CHEMBL1146332.
